tested on: 874868-142-R-J2-PDC complex spheroids, growth % test/control; test: Anticancer human tumor 874868-142-R-J2-PDC patient-derived head and neck squamous carcinoma cell line growth inhibition [CLK]; conditions: second compound 0.316 µM; first compound 10 µM; active compounds read low
Each entry below carries its recorded viability, T/C.
Enter your answer as a number in %; do not include the unit.

compound | viability, T/C [%]
O=c1[nH]cc(F)c(=O)[nH]1 + CN1CCN(c2cc(C(=O)Nc3cc4cc(-c5cnn(C)c5)ccc4cn3)ccn2)CC1 | 10.7

Request: Look up viability, T/C: C#Cc1c(F)ccc2cc(O)cc(-c3ncc4c(N5CC6CCC(C5)N6)nc(OCC56CCCN5CC(F)C6)nc4c3F)c12 (stereo not drawn) + CN1CCN(c2cc(C(=O)Nc3cc4cc(-c5cnn(C)c5)ccc4cn3)ccn2)CC1
Response: 15.4

Request: Look up viability, T/C: CC(Nc1ccc2c(c1)OCCn1cc(N3C(=O)OCC3C(F)F)nc1-2)C(N)=O (stereo not drawn) + CN1CCN(c2cc(C(=O)Nc3cc4cc(-c5cnn(C)c5)ccc4cn3)ccn2)CC1
Response: 8.37

---

system: 874868-142-R-J2-PDC complex spheroids, growth % test/control; test: Anticancer human tumor 874868-142-R-J2-PDC cell line growth inhibition [CLK]; conditions: second compound 0.316 µM; first compound 0.1 µM; active = viability on the fitted dose curve at most 10% of control; inactive = the rest;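 also: spheroids exposed to the compounds for 7 days; 100% = DMSO vehicle control viability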
Respond using exactly one of the listed classes: active, inactive

Here are 6 compounds together with their reported answers.
compound | class-assignment
COC1C=CCC(C)C(C)S(=O)(=O)NC(=O)c2ccc3c(c2)N(CC2CCC21)CC1(CCCc2cc(Cl)ccc21)CO3 (stereo unspecified) + CN1CCN(c2cc(C(=O)Nc3cc4cc(-c5cnn(C)c5)ccc4cn3)ccn2)CC1 | inactive
Cn1ncnc1[C@H]1c2n[nH]c(=O)c3cc(F)cc(c23)N[C@@H]1c1ccc(F)cc1 + CN1CCN(c2cc(C(=O)Nc3cc4cc(-c5cnn(C)c5)ccc4cn3)ccn2)CC1 | inactive
O=c1[nH]cc(F)c(=O)[nH]1 + CN1CCN(c2cc(C(=O)Nc3cc4cc(-c5cnn(C)c5)ccc4cn3)ccn2)CC1 | inactive
Nc1ccccc1NC(=O)c1ccc(CNC(=O)OCc2cccnc2)cc1 + CNC(=O)c1ccc(Nc2nc(OC3CCCC3)c3c(-c4ccc5nc(C)oc5c4)c[nH]c3n2)c(OC)c1 | inactive
Nc1ccccc1NC(=O)c1ccc(CNC(=O)OCc2cccnc2)cc1 + CN1CCN(c2cc(C(=O)Nc3cc4cc(-c5cnn(C)c5)ccc4cn3)ccn2)CC1 | inactive
COc1c(OCCCN2CCOCC2)ccc2c3n(c(=NC(=O)c4cnc(N)nc4)nc12)CCN3 + CN1CCN(c2cc(C(=O)Nc3cc4cc(-c5cnn(C)c5)ccc4cn3)ccn2)CC1 | active

Request: Outcome logged for CCc1c2c(nc3ccc(O)cc13)-c1cc3c(c(=O)n1C2)COC(=O)[C@]3(O)CC + CNC(=O)c1ccc(Nc2nc(OC3CCCC3)c3c(-c4ccc5nc(C)oc5c4)c[nH]c3n2)c(OC)c1 in this assay:
Response: inactive

Request: Outcome logged for O=c1[nH]cc(F)c(=O)[nH]1 + CNC(=O)c1ccc(Nc2nc(OC3CCCC3)c3c(-c4ccc5nc(C)oc5c4)c[nH]c3n2)c(OC)c1 in this assay:
Response: inactive

---

system: 874868-142-R-J2-PDC complex spheroids, growth % test/control; test: Anticancer human tumor 874868-142-R-J2-PDC cell line growth inhibition [CLK]; settings: second compound 1 µM; first compound 1 µM; active means viability on the fitted dose curve at most 10% of control; inactive means the rest;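 also: spheroids exposed to the compounds for 7 days; 100% = DMSO vehicle control viability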
Respond using exactly one of the listed classes: active, inactive

Here are 3 compounds together with their reported answers.
compound | class-assignment
O=C(c1cc(Cc2n[nH]c(=O)c3ccccc23)ccc1F)N1CCN(C(=O)C2CC2)CC1 + CNC(=O)c1ccc(Nc2nc(OC3CCCC3)c3c(-c4ccc5nc(C)oc5c4)c[nH]c3n2)c(OC)c1 | inactive
O=C(c1cc(Cc2n[nH]c(=O)c3ccccc23)ccc1F)N1CCN(C(=O)C2CC2)CC1 + CN1CCN(c2cc(C(=O)Nc3cc4cc(-c5cnn(C)c5)ccc4cn3)ccn2)CC1 | active
COc1cccc2c1C(=O)c1c(O)c3c(c(O)c1C2=O)CC(O)(C(=O)CO)CC3OC1CC(N)C(O)C(C)O1 (centres undefined) + CN1CCN(c2cc(C(=O)Nc3cc4cc(-c5cnn(C)c5)ccc4cn3)ccn2)CC1 | active

Attention now turns to another entry.
Request: Outcome logged for COc1c(OCCCN2CCOCC2)ccc2c3n(c(=NC(=O)c4cnc(N)nc4)nc12)CCN3 + CN1CCN(c2cc(C(=O)Nc3cc4cc(-c5cnn(C)c5)ccc4cn3)ccn2)CC1 in this assay:
Response: active
